half-life at 1 mM listing for selected compounds.
# ASSAY_TEXT: Compound stability in aqueous buffers
# Type: physicochemical
# ASSAY_SETUP: HEPES buffer; pH 7.5, 37 °C, compound 1 mM; read-out: half-life t1/2 in HEPES buffer (converted)
MEASURED_PROPERTY: half-life at 1 mM (days)

1) Cc1ccc(-n2nc3c(=O)n(CCCCS(=O)(=O)N(CCCCCCCBr)CC4CCNCC4)nc(C)c3c2C)cc1 3.54
2) Cc1ccc(-n2nc3c(=O)n(CCCCS(=O)(=O)N(CCc4cccc(CCBr)c4)CC4CCNCC4)nc(C)c3c2C)cc1 20

* * *

# ASSAYED_TARGET: PDEδ (Homo sapiens, UniProt O43924)
# ASSAY_TEXT: Competitive fluorescence polarisation assay (FA probe displacement)
# Format: binding
# Design: His tag; made in house; host or cells: Escherichia coli Rosetta (BL21DE3), pET plasmids
# ASSAY_SETUP: PDEδ 40 nM, FA probe 24 nM, room temperature overnight
pIC50: −log10 of the molar value.
pIC50 listing for selected compounds.
MEASURED_PROPERTY: pIC50

1) Cc1ccc(-n2nc3c(=O)n(CCCCS(=O)(=O)N(CCc4cccc(CCCl)c4)CC4CCNCC4)nc(C)c3c2C)cc1 8.09
2) Cc1ccc(-n2nc3c(=O)n(CCCCS(=O)(=O)N(CCCCCCCBr)CC4CCNCC4)nc(C)c3c2C)cc1 7.77
3) Cc1ccc(-n2nc3c(=O)n(CCCCS(=O)(=O)N(CCc4cccc(CCBr)c4)CC4CCNCC4)nc(C)c3c2C)cc1 7.82
4) Cc1ccc(-n2nc3c(=O)n(CCCCS(=O)(=O)N(CCCCCCCCl)CC4CCNCC4)nc(C)c3c2C)cc1 7.86

* * *

IC50 listing for selected compounds.
# System: MIA PaCa-2 cells
# ASSAY_TEXT: Real-time cell analysis (Incucyte) of proliferation
# Type: cell-based, human
# ASSAY_SETUP: Homo sapiens; MIA PaCa-2; 72 h; read-out: cellular IC50
MEASURED_PROPERTY: IC50 (µM)

1) Cc1ccc(-n2nc3c(=O)n(CCCCS(=O)(=O)N(CCc4cccc(CCBr)c4)CC4CCNCC4)nc(C)c3c2C)cc1 7
2) Cc1ccc(-n2nc3c(=O)n(CCCCS(=O)(=O)N(CCc4cccc(CCCl)c4)CC4CCNCC4)nc(C)c3c2C)cc1 10.9

* * *

# ASSAYED_TARGET: UniProtKB O43924
# ASSAY_TEXT: Competitive fluorescence polarisation assay (FA probe displacement)
# Assay type: binding
# Parameters: His tag; made in house; host or cells: Escherichia coli Rosetta (BL21DE3), pET plasmids
# ASSAY_SETUP: 37 °C overnight
pIC50: −log10 of the molar value.
MEASURED_PROPERTY: pIC50

1. Cc1ccc(-n2nc3c(=O)n(CCCCS(=O)(=O)N(CCc4cccc(CCBr)c4)CC4CCNCC4)nc(C)c3c2C)cc1 8.19

* * *

# ASSAYED_TARGET: PDEδ in the presence of Arl2•GppNHp (Homo sapiens)
# Construct: His tag; made in house; host or cells: Escherichia coli Rosetta (BL21DE3), pET plasmids
# ASSAY_TEXT: Competitive fluorescence polarisation assay in the presence of Arl2•GppNHp
# Type: binding
# ASSAY_SETUP: pre-incubated with PDEδ at 37 °C overnight before addition of Arl2•GppNHp
pIC50: −log10 of the molar value.

COMPOUND	pIC50
Cc1ccc(-n2nc3c(=O)n(CCCCS(=O)(=O)N(CCc4cccc(CCBr)c4)CC4CCNCC4)nc(C)c3c2C)cc1 [6a]	8.32
